Numbers sourced from patent US8623857B2.

biological target: recombinant human PDK1 (Homo sapiens, UniProt O15530); construct: containing amino acids 51-556 of the human PDK1 enzyme; made in house; host or cells: Sf9 insect cells; assay: PDK1 IMAP fluorescence polarization assay (inhibition of peptide substrate phosphorylation); type: biochemical; details: Table 6; 10 nM PDK1 enzyme, 100 nM peptide substrate, 100 nM PIFtide, 2.5 uM ATP, 1.5 hours
Measured IC50 of individual entries

The following molecules have reported results that may help.
                                smiles_repr  measure_name  value_observed
0  N[C@@H]1CCCN(c2c(F)cccc2NC(=O)c2nc(Br)c[nH]2)C1          IC50    51 to 250 nM
1  Cc1cc(-c2c[nH]c(C(=O)Nc3cccc(F)c3N3CCC[C@@H](N)C3)n2)nc(N)n1          IC50      1 to 50 nM
2  Nc1ccc(N2CCC[C@@H](N)C2)c(NC(=O)c2ncc[nH]2)c1          IC50    51 to 250 nM

--- query ---
Ask | Field request: IC50 | item: Cc1cc(-c2c[nH]c(C(=O)Nc3cccc(F)c3N3CCC[C@@H](N)C3)n2)ccn1
Reply | 1 to 50 nM

====

Biological target: recombinant human PDK1 (Homo sapiens, UniProt O15530)
Construct: containing amino acids 51-556 of the human PDK1 enzyme; made in house; host or cells: Sf9 insect cells
Sequence (O15530 51-556): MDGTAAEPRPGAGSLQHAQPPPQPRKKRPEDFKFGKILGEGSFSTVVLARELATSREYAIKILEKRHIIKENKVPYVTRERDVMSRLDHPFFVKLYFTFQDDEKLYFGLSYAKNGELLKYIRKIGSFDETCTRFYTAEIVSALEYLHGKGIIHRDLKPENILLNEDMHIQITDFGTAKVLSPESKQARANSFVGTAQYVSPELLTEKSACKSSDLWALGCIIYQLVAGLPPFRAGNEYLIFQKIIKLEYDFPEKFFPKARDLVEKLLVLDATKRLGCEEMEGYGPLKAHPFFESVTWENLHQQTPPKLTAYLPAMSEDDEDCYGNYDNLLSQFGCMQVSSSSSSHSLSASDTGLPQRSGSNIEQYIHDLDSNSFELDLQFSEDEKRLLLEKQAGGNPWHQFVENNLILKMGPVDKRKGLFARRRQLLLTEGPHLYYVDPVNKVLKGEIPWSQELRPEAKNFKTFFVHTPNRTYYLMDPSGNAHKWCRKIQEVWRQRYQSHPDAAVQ
Test: PDK1 IMAP fluorescence polarization assay (inhibition of peptide substrate phosphorylation)
Type: biochemical
Conditions: Table 6; 10 nM PDK1 enzyme, 100 nM peptide substrate, 100 nM PIFtide, 2.5 uM ATP, 1.5 hours
measure-name: IC50

>>> print(df.to_string())
                                smiles_repr                          target_or_system   value_observed
0  CN(C)CCOc1ccccc1NC(=O)c1nc(-c2cnn(Cc3ccccc3)c2)c[nH]1  recombinant human PDK1 (Homo sapiens, UniProt O15530)  1000 to 5000 nM
1  NCC1CCN(c2c(F)cccc2NC(=O)c2nc(-c3cccc(Cl)c3)c[nH]2)CC1  recombinant human PDK1 (Homo sapiens, UniProt O15530)     51 to 250 nM
2  CNc1cc(-c2c[nH]c(C(=O)Nc3cccc(F)c3N3CCC(CN)CC3)n2)ccn1  recombinant human PDK1 (Homo sapiens, UniProt O15530)       1 to 50 nM

Ask | I'd like to know its IC50. The molecule in question is N[C@@H]1CCCN(c2c(F)cccc2NC(=O)c2nc(-c3cnn(Cc4ccccn4)c3)c[nH]2)C1
Reply | 1000 to 5000 nM

Ask | Here is the next molecule: Cc1cc(-c2c[nH]c(C(=O)Nc3cccc(F)c3N3CCC4(CCCNC4)CC3)n2)ccn1
Reply | 51 to 250 nM

Ask | Thanks! And NCC1CCN(c2c(NC(=O)c3nc(-c4ccnc(N)c4)c[nH]3)ccc(F)c2F)CC1 ?
Reply | 51 to 250 nM

Ask | Consider next the molecule Cn1cc(-c2c[nH]c(C(=O)Nc3cccc(F)c3N3CCC[C@@H](N)C3)n2)cn1 in the same way.
Reply | 251 to 1000 nM

Ask | Now the same for NCC1CCN(c2c(F)cccc2NC(=O)c2nc(-c3cn[nH]c3)c[nH]2)CC1
Reply | 1 to 50 nM
